tested on: MRC-5 embryonic lung fibroblast cell line; experiment: MTT assay for cytotoxic effect, MRC-5; assay type: cell-based, human; settings: MTT, 24 h incubation, triplicate
Measured parameter: IC50

Exam item: # returns recorded IC50 (system: MRC-5 embryonic lung fibroblast cell line) for C/C(=C\CC/C=C(\C)CC/C=C(\C)CC[C@H](O)C(C)(C)O)CC/C=C(\C)CC[C@H](O)C(C)(C)O
Marked response: > 25 µM

----------
test: MTT assay for cytotoxic effect, MRC-5; format: cell-based, human; conditions: human, MRC-5 embryonic lung fibroblast cells, MTT, 24 h incubation, triplicate; read-out: MRC-5 (IC50 μM) mean
Measured parameter: IC50 at 24 h (µM)
Write down the numeric answer in µM and omit the unit.

Exam item: Form field: reported IC50 at 24 h of C/C(=C\CC/C=C(\C)CC/C=C(\C)CC[C@H](O)C(C)(C)O)CC/C=C(\C)CC[C@H](O)C(C)(C)O
Marked response: 29.1

----------
experiment: MTT assay for cytotoxic effect, MRC-5; assay type: cell-based, human; settings: human, MRC-5 (IC50 μM) mean
Recorded IC50 at 24 h values for a group of molecules are listed next.

Worked examples follow.
smiles_data=CC(C)[C@@H](C)/C=C/[C@@H](C)[C@H]1CC[C@H]2C3=CC=C4C[C@@H](O)CC[C@]4(C)[C@H]3CC[C@]12C recorded_result="0.5 µM"
smiles_data=CC(=O)O[C@H]1[C@H](OC(=O)C[C@](C)(O)CC(=O)O)C[C@]2(C)C3=C(CC[C@H]2C1(C)C)[C@]1(C)CC[C@H]([C@H](C)CCC(=O)C(C)(C)O)[C@@]1(C)[C@H](O)C3 recorded_result="> 100 µM"

# context switch: different molecule, same IC50 at 24 h
Exam item: Form field: reported IC50 at 24 h of CC(=O)O[C@H]1[C@H](OC(=O)C[C@](C)(O)CC(=O)O)C[C@]2(C)C3=C(C(=O)C[C@H]2C1(C)C)[C@]1(C)CC[C@H]([C@H](C)CCC(=O)C(C)(C)O)[C@@]1(C)CC3
Marked response: > 100 µM

----------
test system: Colo 205 doxorubicin-sensitive colon adenocarcinoma cells; assay: MTT assay for cytotoxic effect, Colo 205; assay type: cell-based, human; conditions: 24 h incubation, triplicate, read-out: Colo205 (IC50 μM) mean
Measured parameter: IC50

Worked examples follow.
compound="COC(=O)C[C@@](C)(O)CC(=O)O[C@@H]1C[C@]2(C)C3=C(CC[C@H]2C(C)(C)[C@H]1OC(C)=O)[C@]1(C)CC[C@H]([C@H](C)CCC(=O)C(C)(C)O)[C@@]1(C)[C@H](O)C3 [compound 4, pholiol D]" measured_parameter=IC50 recorded_result="> 25 µM"
compound="COc1cccc2c1C(=O)c1c(O)c3c(c(O)c1C2=O)C[C@@](O)(C(=O)CO)C[C@@H]3O[C@H]1C[C@H](N)[C@H](O)[C@H](C)O1 [doxorubicin, reference compound]" measured_parameter=IC50 recorded_result="2.5 µM"
compound="COC(=O)C[C@@](C)(O)CC(=O)O[C@@H]1C[C@]2(C)C3=C(C(=O)C[C@H]2C(C)(C)[C@H]1OC(C)=O)[C@]1(C)CC[C@H]([C@H](C)CCC(=O)C(C)(C)O)[C@@]1(C)CC3 [compound 2, pholiol B]" measured_parameter=IC50 recorded_result="> 25 µM"

# context switch: different compound, same IC50
Exam item: # returns recorded IC50 (system: Colo 205 doxorubicin-sensitive colon adenocarcinoma cells) for C/C(=C\CC/C=C(\C)CC/C=C(\C)CC[C@H](O)C(C)(C)O)CC/C=C(\C)CC[C@H](O)C(C)(C)O [compound 5]
Marked response: > 25 µM
